tested on: AMAPA; assay: Post-emergence herbicidal glasshouse test; type: in vivo, Amaranthus tuberculatus; conditions: 250 g/ha, evaluated after 13 days, five-point scale
METRIC_NAME: percentage damage caused to the plant, AMAPA

> print(dat)
                                    molecule  target.entity    test.result
 1        FC(F)c1ncc2c(Oc3ncc(Cl)cn3)cccc2n1          AMAPA   3 (3=41-60%)
 2    FC(F)c1ncc2c(Oc3ncc(Br)cn3)ccc(Cl)c2n1          AMAPA   2 (2=21-40%)
 3     FC(F)(F)c1ccc2c(Oc3ncc(Cl)cn3)cccc2n1          AMAPA  5 (5=81-100%)
 4  Cc1cnc(Oc2ccc(Cl)c3nc(C(F)(F)Cl)ncc23)nc1          AMAPA   2 (2=21-40%)
 5    FC(F)(Cl)c1ncc2c(Oc3ncc(Br)cn3)cccc2n1          AMAPA   3 (3=41-60%)
 6          CCOc1ncc2c(Oc3ncc(Cl)cn3)cccc2n1          AMAPA  5 (5=81-100%)
 7  Cc1ccc(Oc2ncc(Cl)cn2)c2c(C)nc(C(F)(F)F)nc12          AMAPA    1 (1=0-20%)
 8  Cc1nc(C(F)(F)F)nc2c(Br)ccc(Oc3ncc(Cl)cn3)c12          AMAPA    1 (1=0-20%)
 9  Cc1nc(C(F)(F)Cl)nc2cccc(Oc3ncc(F)cn3)c12          AMAPA  5 (5=81-100%)
10     Cc1nc(C(F)F)nc2cccc(Oc3ncc(Br)cn3)c12          AMAPA    1 (1=0-20%)
11  Cc1ccc(Oc2ncc(Cl)cn2)c2cnc(C(F)(F)F)nc12 [Compound 1.068]          AMAPA   2 (2=21-40%)
12  Cc1nc(C(F)(F)Cl)nc2cccc(Oc3ncc(Cl)cn3)c12          AMAPA   3 (3=41-60%)

* * *

system: Ipomoea hederacea (IPOHE); assay: Post-emergence herbicidal glasshouse test; type: in vivo; conditions: 250 g/ha, evaluated after 13 days, five-point scale
Below, each of the compounds is paired with its reported percentage damage caused to the plant, IPOHE value.
METRIC_NAME: percentage damage caused to the plant, IPOHE

> print(dat)
                                   compound   test.result
1  Fc1cnc(Oc2ccc(Cl)c3nc(C(F)(F)Cl)ncc23)nc1 [Compound 1.043]  2 (2=21-40%)
2  Cc1nc(C(F)F)nc2cccc(Oc3ncc(Br)cn3)c12 [Compound 1.051]   1 (1=0-20%)
3  Cc1cnc(Oc2ccc(C)c3nc(C(F)(F)F)ccc23)nc1 [Compound 1.025]  2 (2=21-40%)
4  COc1ncc2c(Oc3ncc(Br)cn3)ccc(Br)c2n1 [Compound 1.031]   1 (1=0-20%)
5  FC(F)(F)c1ncc2c(Oc3ncc(Cl)cn3)cccc2n1 [Compound 1.002]  4 (4=61-80%)
6  Fc1cc(Cl)cnc1Oc1cccc2nc(C(F)(F)F)ncc12 [Compound 1.006]  2 (2=21-40%)
7  COc1ncc2c(Oc3ncc(F)cn3)ccc(Br)c2n1 [Compound 1.030]   1 (1=0-20%)
8  FC(F)(Cl)c1ncc2c(Oc3ncc(Cl)cn3)cccc2n1 [Compound 1.057]  4 (4=61-80%)

* * *

system: Amaranthus retoflexus (AMARE); assay: Pre-emergence herbicidal glasshouse test; format: in vivo; conditions: 250 g/ha, evaluated after 13 days, five-point scale
METRIC_NAME: percentage damage caused to the plant, AMARE

> print(dat)
                                     smiles    test.result
1      Cc1cnc(Oc2cccc3nc(C(F)(F)F)ncc23)nc1  5 (5=81-100%)
2  Fc1cnc(Oc2ccc(Br)c3nc(C(F)(F)F)ccc23)nc1   3 (3=41-60%)
3  Cc1cc(C(F)(F)F)nc2cccc(Oc3ncc(Cl)cc3F)c12    1 (1=0-20%)
4      Fc1cnc(Oc2cccc3nc(C(F)(F)F)ccc23)nc1  5 (5=81-100%)
5      Cc1cnc(Oc2cccc3nc(C(F)(F)F)ccc23)nc1  5 (5=81-100%)

* * *

Below, each of the compounds is paired with its reported percentage damage caused to the plant, AMAPA value.
system: AMAPA; experiment: Post-emergence herbicidal glasshouse test; type: in vivo, Amaranthus tuberculatus; conditions: 250 g/ha, evaluated after 13 days, five-point scale
METRIC_NAME: percentage damage caused to the plant, AMAPA

> print(dat)
                                    compound    test.result
 1     FC(F)(F)c1ncc2c(Oc3ncc(Cl)cn3)cccc2n1  5 (5=81-100%)
 2  Cc1ccc(Oc2ncc(Cl)cn2)c2cnc(C(F)(F)F)nc12 [Compound 1.028]   3 (3=41-60%)
 3      Cc1cnc(Oc2cccc3nc(C(F)(F)F)ccc23)nc1   4 (4=61-80%)
 4      Cc1nc(C(F)F)nc2cccc(Oc3ncc(F)cn3)c12    1 (1=0-20%)
 5      Fc1cnc(Oc2cccc3nc(C(F)(F)F)ccc23)nc1  5 (5=81-100%)
 6     Fc1cnc(Oc2cccc3nc(C(F)(F)Cl)ncc23)nc1   4 (4=61-80%)
 7      Fc1cnc(Oc2cccc3nc(C(F)(F)F)ncc23)nc1   4 (4=61-80%)
 8  FC(F)(Cl)c1ncc2c(Oc3ncc(Cl)cn3)ccc(Cl)c2n1   3 (3=41-60%)
 9  Cc1cnc(Oc2ccc(C)c3nc(C(F)(F)Cl)ncc23)nc1   3 (3=41-60%)
10         Fc1cnc(Oc2cccc3nc(C(F)F)ncc23)nc1   2 (2=21-40%)
11     Cc1ccc(Oc2ncc(Br)cn2)c2cnc(C(F)F)nc12   3 (3=41-60%)
12  FC(F)(F)c1ccc2c(Oc3ncc(Cl)cn3)ccc(Br)c2n1   2 (2=21-40%)
13   Cc1ccc(Oc2ncc(F)cn2)c2ccc(C(F)(F)F)nc12   4 (4=61-80%)
14    FC(F)c1ncc2c(Oc3ncc(Cl)cn3)ccc(Cl)c2n1   2 (2=21-40%)
15    FC(F)(Cl)c1ncc2c(Oc3ncc(Cl)cn3)cccc2n1   4 (4=61-80%)
16     Fc1cnc(Oc2ccc(Cl)c3nc(C(F)F)ncc23)nc1    1 (1=0-20%)
17         FC(F)(F)c1ncc2c(Oc3ncccn3)cccc2n1   3 (3=41-60%)
18  FC(F)Oc1cnc(Oc2cccc3nc(C(F)(F)F)ncc23)nc1    1 (1=0-20%)
19      Cc1ccc(Oc2ncc(F)cn2)c2cnc(C(F)F)nc12   2 (2=21-40%)
20       COc1ncc2c(Oc3ncc(Br)cn3)ccc(Br)c2n1    1 (1=0-20%)
21  Cc1cc(C(F)(F)F)nc2cccc(Oc3ncc(Cl)cn3)c12   2 (2=21-40%)
22  N#Cc1ccc(Oc2ncc(Cl)cn2)c2cnc(C(F)(F)F)nc12    1 (1=0-20%)
23  Cc1ccc(Oc2ncc(Br)cn2)c2cnc(C(F)(F)Cl)nc12   2 (2=21-40%)
24        COc1nc(C)c2c(Oc3ncc(Cl)cn3)cccc2n1   2 (2=21-40%)
25        COc1ncc2c(Oc3ncc(F)cn3)ccc(Br)c2n1   3 (3=41-60%)
26  Cc1cc(C(F)(F)F)nc2cccc(Oc3ncc(Cl)cc3F)c12    1 (1=0-20%)
27  FC(F)(F)c1ncc2c(Oc3ncc(Cl)cn3)ccc(Br)c2n1   2 (2=21-40%)
28     Cc1nc(C(F)F)nc2cccc(Oc3ncc(Cl)cn3)c12   4 (4=61-80%)
29  Fc1cnc(Oc2ccc(Cl)c3nc(C(F)(F)Cl)ncc23)nc1   3 (3=41-60%)
30     FC(F)(F)c1ncc2c(Oc3ncc(Br)cn3)cccc2n1  5 (5=81-100%)
31     FC(F)(F)c1ccc2c(Oc3ncc(Br)cn3)cccc2n1  5 (5=81-100%)
32      Cc1cnc(Oc2cccc3nc(C(F)(F)F)ncc23)nc1   4 (4=61-80%)
33  Cc1ccc(Oc2ncc(F)cn2)c2cnc(C(F)(F)Cl)nc12   3 (3=41-60%)
34    Fc1cc(Cl)cnc1Oc1cccc2nc(C(F)(F)F)ncc12    1 (1=0-20%)

* * *

tested on: Amaranthus retoflexus (AMARE); assay: Pre-emergence herbicidal glasshouse test; format: in vivo; conditions: 250 g/ha, evaluated after 13 days, five-point scale
Below, each of the compounds is paired with its reported percentage damage caused to the plant, AMARE value.
METRIC_NAME: percentage damage caused to the plant, AMARE

> print(dat)
                                      smiles                  target.entity    test.result
 1  Cc1ccc(Oc2ncc(Cl)cn2)c2ccc(C(F)(F)F)nc12  Amaranthus retoflexus (AMARE)   2 (2=21-40%)
 2  FC(F)(F)c1ncc2c(Oc3ncc(Cl)cn3)ccc(Br)c2n1  Amaranthus retoflexus (AMARE)   3 (3=41-60%)
 3  Cc1nc(C(F)(F)Cl)nc2cccc(Oc3ncc(F)cn3)c12  Amaranthus retoflexus (AMARE)  5 (5=81-100%)
 4     Cc1ccc(Oc2ncc(Br)cn2)c2cnc(C(F)F)nc12  Amaranthus retoflexus (AMARE)   2 (2=21-40%)
 5     Fc1cnc(Oc2cccc3nc(C(F)(F)Cl)ncc23)nc1  Amaranthus retoflexus (AMARE)  5 (5=81-100%)
 6  FC(F)Oc1cnc(Oc2cccc3nc(C(F)(F)F)ncc23)nc1  Amaranthus retoflexus (AMARE)    1 (1=0-20%)
 7  Cc1nc(C(F)(F)F)nc2cccc(Oc3ncc(Cl)cn3)c12  Amaranthus retoflexus (AMARE)  5 (5=81-100%)
 8     FC(F)(F)c1ncc2c(Oc3ncc(Cl)cn3)cccc2n1  Amaranthus retoflexus (AMARE)  5 (5=81-100%)
 9       COc1ncc2c(Oc3ncc(Br)cn3)ccc(Br)c2n1  Amaranthus retoflexus (AMARE)    1 (1=0-20%)
10               Clc1cnc(Oc2cccc3ccncc23)nc1  Amaranthus retoflexus (AMARE)    1 (1=0-20%)
11    FC(F)c1ncc2c(Oc3ncc(Cl)cn3)ccc(Cl)c2n1  Amaranthus retoflexus (AMARE)  5 (5=81-100%)
12    FC(F)(Cl)c1ncc2c(Oc3ncc(Cl)cn3)cccc2n1  Amaranthus retoflexus (AMARE)  5 (5=81-100%)
13    Fc1cc(Cl)cnc1Oc1cccc2nc(C(F)(F)F)ncc12  Amaranthus retoflexus (AMARE)    1 (1=0-20%)
14  Cc1nc(C(F)(F)F)nc2c(C#N)ccc(Oc3ncc(Cl)cn3)c12  Amaranthus retoflexus (AMARE)    1 (1=0-20%)
